# Test system: HIV-1Ba-L
# Procedure Details: Co-culture model: drug-exposed human ectocervical explants washed, minced, co-cultured with JT-CCR5 cells, HIV-1Ba-L challenge
# Assay type: cell-based
# Settings: drug concentration during 24 h explant exposure; means ± SEM; read-out: Co-culture JT-CCR5 & explant tissue IC50
Reported Metric: IC50 (nM)

1. Cc1cc(C)cc(C(=O)c2c(C(C)C)c(=O)[nH]c(=O)n2CC2CC2)c1 | 2900
